The measurements presented in this section are drawn from patent US20230135894A1.

Measured Dmax, listed per entry for reference.
# System Tested: MK2 (Homo sapiens, UniProt P49137)
# Sequence (P49137 whole entry): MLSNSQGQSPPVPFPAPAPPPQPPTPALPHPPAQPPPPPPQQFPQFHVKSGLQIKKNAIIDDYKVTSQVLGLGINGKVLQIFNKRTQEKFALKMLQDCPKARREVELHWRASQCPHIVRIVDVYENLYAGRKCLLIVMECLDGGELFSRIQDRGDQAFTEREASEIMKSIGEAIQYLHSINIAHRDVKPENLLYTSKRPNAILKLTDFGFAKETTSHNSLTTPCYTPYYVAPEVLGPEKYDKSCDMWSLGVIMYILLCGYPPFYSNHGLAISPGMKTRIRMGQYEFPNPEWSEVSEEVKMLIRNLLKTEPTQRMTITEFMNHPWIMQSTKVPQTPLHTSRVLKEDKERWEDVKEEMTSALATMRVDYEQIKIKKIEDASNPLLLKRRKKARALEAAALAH
# Method Notes: MK2 degradation in human THP-1 monocytic cells (MSD, 24 h)
# Assay type: cell-based
# Parameters: endogenous in cells
# Condition: THP-1, THP-1 cells

# annotated cases, reported Dmax shown
>>> measured_result("Cn1c(=O)n(C2CCC(=O)NC2=O)c2ccc(N3CCC(CN4CCN(c5ccc(-c6cc(-c7cc8c([nH]7)C7(CCCC7)CNC8=O)ccn6)c(F)c5)CC4)CC3)cc21 (centres unmarked)")
"> 75%"
>>> measured_result("Cc1cc(N2CCN(CC3CCN(c4ccc5c(c4)n(C)c(=O)n5C4CCC(=O)NC4=O)CC3)CC2)ccc1-c1cc(-c2cc3c([nH]2)C2(CC2)CNC3=O)ccn1 (centres unmarked)")
"< 50%"
>>> measured_result("C[C@@H]1CNc2c(sc3ccc4nc(-c5cnc(N6CCN(CC7CCN(c8ccc9c(c8)n(C)c(=O)n9C8CCC(=O)NC8=O)CC7)CC6)nc5)ccc4c23)C(=O)N1 (some centres unmarked)")
"> 75%"
>>> measured_result("C[C@@H]1CNc2c(sc3ccc4nc(-c5ccc(N6CCN(CCCCCc7cccc8c7n(C)c(=O)n8C7CCC(=O)NC7=O)CC6)cc5)ccc4c23)C(=O)N1 (some centres unmarked)")
"50 to 75%"

Next item in the queue.
[in] For the compound C[C@@H]1CNc2c(sc3ccc4nc(-c5ccc(N6CCN(C7CN(c8cccc9c8n(C)c(=O)n9C8CCC(=O)NC8=O)C7)CC6)cc5)ccc4c23)C(=O)N1 (some centres unmarked) , give its reported Dmax.
[out] > 75%

====

# System Tested: MK2 (Homo sapiens)
# Method Notes: MK2 degradation in human SW1353 cells (MSD, 24 h)
# Assay type: cell-based
# Design: endogenous in cells; host or cells: SW-1353 (ATCC HTB-94)
# Condition: read-out: MK2 MSD SW1353 degradation 24 h GMean External Abs DC50
Measured DC50, listed per entry for reference.

# annotated cases, reported DC50 shown
>>> measured_result("C[C@@H]1CNc2c(sc3ccc4nc(-c5ccc(N6CCN(C[C@H]7C[C@H](c8ccc9c(c8)n(C)c(=O)n9C8CCC(=O)NC8=O)C7)CC6)cc5)ccc4c23)C(=O)N1 (stereo partly drawn) [Compound I-222]")
"< 1 nM"
>>> measured_result("C[C@@H]1CNc2c(sc3ccc4nc(-c5cccc(C#CCCNC(=O)CCCCCCCc6cccc7c6n(C)c(=O)n7C6CCC(=O)NC6=O)c5)ccc4c23)C(=O)N1 (stereo partly drawn) [Compound I-48]")
"1 to 10 nM"

Next item in the queue.
[in] For the molecule C[C@@H]1CNc2c(sc3ccc4nc(-c5ccc(N6CCN(CCCCCc7cccc8c7n(C)c(=O)n8C7CCC(=O)NC7=O)CC6)cc5)ccc4c23)C(=O)N1 (stereo partly drawn) [Compound I-171] , give its reported DC50.
[out] 1 to 10 nM

====

# System Tested: MK2 (Homo sapiens, UniProt P49137)
# Method Notes: MK2 degradation in human SW1353 cells (MSD, 24 h)
# Format: cell-based
# Set-up: endogenous in cells; host or cells: SW-1353 (ATCC HTB-94)
# Condition: read-out: MK2 MSD SW1353 degradation 24 h GMean External Abs DC50
# Protocol: MK2 Degradation in Human SW1353 Cells […] After 3 more washes, the secondary detection antibody (SULFO-Tag anti rabbit antibody R32AB-5) was added at a final concentration of 1 microgram per ml at 25 microlitres per well and shaken at room temperature for 1 hour at 600 rpm. After 3 more washes, the 1×MSD (diluted from 5× concentrate with water) reading buffer was added at 150 microlitres per well and read on the MSD instrument Meso Sector S 600. […]
Assay Endpoint: DC50

>>> measured_result("Cn1c(=O)n(C2CCC(=O)NC2=O)c2ccc(C3CCN(CC4CCN(c5ccc(-c6cc(-c7cc8c([nH]7)CCNC8=O)ccn6)c(F)c5)CC4)CC3)cc21 (centres unmarked)")
"< 1 nM"
>>> measured_result("C[C@@H]1CNc2c(sc3ccc4nc(-c5cccc(N6CCN(CCCCCCCCCCc7cccc8c7n(C)c(=O)n8C7CCC(=O)NC7=O)CC6)c5)ccc4c23)C(=O)N1 (some centres unmarked)")
"10 to 100 nM"
>>> measured_result("C[C@@H]1CNc2c(sc3ccc4nc(-c5ccc(N6CCC(CCN7CCN(c8ccc9c(c8)n(C)c(=O)n9C8CCC(=O)NC8=O)CC7)CC6)cc5)ccc4c23)C(=O)N1 (some centres unmarked)")
"< 1 nM"

[in] For the compound Cn1c(=O)n(C2CCC(=O)NC2=O)c2ccc(N3CCC(CN4CCN(c5ccc(-c6cc(-c7cc8c([nH]7)CCNC8=O)ccn6)cc5)CC4)CC3)cc21 (centres unmarked) , give its reported DC50.
[out] < 1 nM

[in] For the compound C[C@@H]1CNc2c(sc3ccc4nc(-c5ccc(C#CCCNC(=O)CCCCCCCCCc6ccc7c(c6)n(C)c(=O)n7C6CCC(=O)NC6=O)cc5)ccc4c23)C(=O)N1 (some centres unmarked) , give its reported DC50.
[out] 10 to 100 nM
